# EXPERIMENT DESCRIPTION: total protein half-life in vivo (active degradation + dilution); higher = more stable protein
# ASSAY CONDITIONS: wild type E. coli NCM3722; growth: C-lim chemostat; doubling time 6 h
MEASURED ENDPOINT: total protein half-life in vivo

The cases that follow already have their total protein half-life in vivo on record.
SEQUENCE DATA: MSQTVHFQGNPVTVANSIPQAGSKAQTFTLVAKDLSDVTLGQFAGKRKVLNIFPSIDTGVCAASVRKFNQLATEIDNTVVLCISADLPFAQSRFCGAEGLNNVITLSTFRNAEFLQAYGVAIADGPLKGLAARAVVVIDENDNVIFSQLVDEITTEPDYEAALAVLKA [P0A862]
RESULT: 6.01 h

SEQUENCE DATA: MFKPHVTVACVVHAEGKFLVVEETINGKALWNQPAGHLEADETLVEAAARELWEETGISAQPQHFIRMHQWIAPDKTPFLRFLFAIELEQICPTQPHDSDIDCCRWVSAEEILQASNLRSPLVAESIRCYQSGQRYPLEMIGDFNWPFTKGVI [P0AEI6]
RESULT: 5.3 h

SEQUENCE DATA: MLKTIRKHGITLALFAAGSTGLTAAINQMTKTTIAEQASLQQKALFDQVLPAERYNNALAQSCYLVTAPELGKGEHRVYIAKQDDKPVAAVLEATAPDGYSGAIQLLVGADFNGTVLGTRVTEHHETPGLGDKIELRLSDWITHFAGKKISGADDAHWAVKKDGGDFDQFTGATITPRAVVNAVKRAGLYAQTLPAQLSQLPACGE
RESULT: 5.7 h

Proceeding to the next sequence to report its total protein half-life in vivo.
Ask | What does the data say about its total protein half-life in vivo? Entry: "MVLWQSDLRVSWRAQWLSLLIHGLVAAVILLMPWPLSYTPLWMVLLSLVVFDCVRSQRRINARQGEIRLLMDGRLRWQGQEWSIVKAPWMIKSGMMLRLRSDGGKRQHLWLAADSMDEAEWRDLRRILLQQETQR"
Reply | 5.64 h
